experimental-details: Pharmacokinetics of tranexamic acid after administration of tranexamic acid or prodrug to rats
Format: in vivo, Sprague-Dawley rats
study-conditions: male, Sprague-Dawley, whole blood, po; tranexamic acid in blood, rat, dose equivalent to 16 mg/kg, mean (SD)
quantity-name: AUC(0-t)

I would be grateful if you could share the reported AUC(0-t) for NC[C@H]1CC[C@H](C(=O)O)CC1 [Compound 1, reference compound] .
7300 ng·h/mL

----------
experimental-details: Pharmacokinetics of tranexamic acid after administration of tranexamic acid or prodrug to rats
Assay type: in vivo, Sprague-Dawley rats
study-conditions: male, Sprague-Dawley, whole blood, po; tranexamic acid in blood, rat, dose equivalent to 16 mg/kg, mean (SD)
quantity-name: AUC(0-inf) (ng·h/mL)
Please reply with the bare figure in ng·h/mL and do not write the unit itself.

I would be grateful if you could share the reported AUC(0-inf) for NC[C@H]1CC[C@H](C(=O)O)CC1 [Compound 1, reference compound] .
7800

----------
experimental-details: Pharmacokinetics of tranexamic acid after administration of tranexamic acid or prodrug to rats
Format: in vivo, Sprague-Dawley rats
study-conditions: male, Sprague-Dawley, whole blood, po; tranexamic acid in blood, p.o., rat, dose equivalent to 16 mg/kg, mean (SD); read-out: Tmax
quantity-name: Tmax (h)
Please reply with the bare figure in h and do not write the unit itself.

I would be grateful if you could share the reported Tmax for NC[C@H]1CC[C@H](C(=O)O)CC1 [Compound 1, reference compound] .
1.1

----------
experimental-details: Pharmacokinetics of tranexamic acid after administration of tranexamic acid or prodrug to rats
Type: in vivo, Sprague-Dawley rats
study-conditions: male, Sprague-Dawley, whole blood; tranexamic acid in blood, i.c., rat, dose equivalent to 16 mg/kg, mean (SD); read-out: Tmax
quantity-name: Tmax (h)
Please reply with the bare figure in h and do not write the unit itself.

I would be grateful if you could share the reported Tmax for NC[C@H]1CC[C@H](C(=O)O)CC1 [Compound 1, reference compound] .
3.1

----------
experimental-details: Pharmacokinetics of tranexamic acid after administration of tranexamic acid or prodrug to rats
Assay type: in vivo, Sprague-Dawley rats
study-conditions: male, Sprague-Dawley, whole blood; tranexamic acid in blood, i.c. (intracolonic), rat, dose equivalent to 16 mg/kg, mean (SD); read-out: Cmax
quantity-name: Cmax (ng/mL)
Please reply with the bare figure in ng/mL and do not write the unit itself.

I would be grateful if you could share the reported Cmax for NC[C@H]1CC[C@H](C(=O)O)CC1 [Compound 1, reference compound] .
220

----------
experimental-details: Pharmacokinetics of tranexamic acid after administration of tranexamic acid or prodrug to rats
Assay type: in vivo, Sprague-Dawley rats
study-conditions: male, Sprague-Dawley, whole blood; tranexamic acid in blood, i.c., rat, dose equivalent to 16 mg/kg, mean (SD)
quantity-name: AUC(0-t) (ng·h/mL)
Please reply with the bare figure in ng·h/mL and do not write the unit itself.

I would be grateful if you could share the reported AUC(0-t) for NC[C@H]1CC[C@H](C(=O)O)CC1 [Compound 1, reference compound] .
600

----------
Tested on: Caco-2 cells
experimental-details: Caco-2 cellular permeability
study-conditions: ratio of Papp apical to basolateral / basolateral to apical
The label depends only on Ratio A-B/B-A: criterion met if it is at least 4, criterion not met if it is smaller.

CCCC(OC(=O)NC[C@H]1CC[C@H](C(=O)O)CC1)OC(=O)C(C)C (relative stereo) : criterion met

Threshold query (Ratio A-B/B-A >= 4) on CC(OC(=O)NC[C@H]1CC[C@H](C(=O)O)CC1)OC(=O)C(C)C (some centres unmarked)
criterion met

Consider next the compound CC(C)CC(=O)OC(C)OC(=O)NC[C@H]1CC[C@H](C(=O)O)CC1 (single isomer, unassigned) in the same way.
criterion met

Consider next the compound NC[C@H]1CC[C@H](C(=O)O)CC1 [Compound 1, reference compound] in the same way.
criterion not met

Consider next the compound `CC(C)C(=O)O[C@H](C)OC(=O)NC[C@H]1CC[C@H](C(=O)O)CC1` in the same way.
criterion met

Consider next the compound CC(C)C(=O)OC(OC(=O)NC[C@H]1CC[C@H](C(=O)O)CC1)C(C)C (single isomer, unassigned) in the same way.
criterion not met

Consider next the compound CCCC(=O)OC(C)OC(=O)NC[C@H]1CC[C@H](C(=O)O)CC1 (relative stereo) in the same way.
criterion met

----------
experimental-details: Pharmacokinetics of tranexamic acid after administration of tranexamic acid or prodrug to rats
Format: in vivo, Sprague-Dawley rats
study-conditions: male, Sprague-Dawley, whole blood, po; tranexamic acid in blood, p.o., rat, dose equivalent to 16 mg tranexamic acid per kg, mean (SD); read-out: Cmax
quantity-name: Cmax (ng/mL)
Please reply with the bare figure in ng/mL and do not write the unit itself.

I would be grateful if you could share the reported Cmax for NC[C@H]1CC[C@H](C(=O)O)CC1 [Compound 1, reference compound] .
2060

----------
Test system: Caco-2 cells
experimental-details: Caco-2 cellular permeability
study-conditions: ratio of Papp apical to basolateral / basolateral to apical
Listed next: entries and their corresponding Ratio A-B/B-A.
Just the number.

CC(C)C(=O)OCOC(=O)NC[C@H]1CC[C@H](C(=O)O)CC1 : 7.7

I would be grateful if you could share the reported Ratio A-B/B-A for CCCCC(=O)OC(OC(=O)NC[C@H]1CC[C@H](C(=O)O)CC1)C(C)C (relative stereo) .
2.9

Consider next the compound CC(C)C(OC(=O)NC[C@H]1CC[C@H](C(=O)O)CC1)OC(=O)c1ccccc1 (relative stereo) in the same way.
2.9

Consider next the compound `O=C(NC[C@H]1CC[C@H](C(=O)O)CC1)OCOC(=O)c1ccccc1` in the same way.
4.2

Consider next the compound CC(C)C(OC(=O)NC[C@H]1CC[C@H](C(=O)O)CC1)OC(=O)C1CCCCC1 (relative stereo) in the same way.
3.1

Consider next the compound CC(OC(=O)NC[C@H]1CC[C@H](C(=O)O)CC1)OC(=O)c1ccccc1 (single isomer, unassigned) in the same way.
4.5
